MEASURED TARGET: human TAAR1 (Homo sapiens (Human), UniProt Q96RJ0)
Sequence (Q96RJ0 whole entry): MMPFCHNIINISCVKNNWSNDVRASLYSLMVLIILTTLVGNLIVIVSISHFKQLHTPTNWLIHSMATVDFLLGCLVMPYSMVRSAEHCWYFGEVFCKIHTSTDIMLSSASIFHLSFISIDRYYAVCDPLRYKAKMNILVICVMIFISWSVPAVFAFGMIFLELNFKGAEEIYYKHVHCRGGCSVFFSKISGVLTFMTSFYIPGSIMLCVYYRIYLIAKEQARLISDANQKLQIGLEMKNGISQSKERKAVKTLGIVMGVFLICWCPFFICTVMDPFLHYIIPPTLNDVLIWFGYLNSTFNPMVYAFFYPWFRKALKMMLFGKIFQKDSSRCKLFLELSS
EXPERIMENTAL DETAILS: cAMP functional assay in HEK293 cells expressing human TAAR1
Format: cell-based
RECORDED CONDITIONS: % agonist activity, β-phenylethylamine = 100% agonism
ASSAY READOUT: hTAAR1 efficacy* (%)
Your answer is read as %, so omit the unit and give the number.

// lookup hTAAR1 efficacy* | system=human TAAR1 (Homo sapiens (Human), UniProt Q96RJ0) | key= O=C(Nc1ccc([C@H]2CNCCO2)cc1)c1ccc(Cl)cn1
40

// lookup hTAAR1 efficacy* | system=human TAAR1 (Homo sapiens (Human), UniProt Q96RJ0) | key= Cc1c(C(=O)Nc2ccc([C@H]3CNCCO3)cc2)n[nH]c1-c1ccccc1
33

// lookup hTAAR1 efficacy* | system=human TAAR1 (Homo sapiens (Human), UniProt Q96RJ0) | key= O=C(Nc1ccc([C@H]2CNCCO2)cc1)c1cnc(-c2ccccc2)s1
30

// lookup hTAAR1 efficacy* | system=human TAAR1 (Homo sapiens (Human), UniProt Q96RJ0) | key= Cc1cc(C(=O)Nc2ccc([C@H]3CNCCO3)cc2)ccn1
45

// lookup hTAAR1 efficacy* | system=human TAAR1 (Homo sapiens (Human), UniProt Q96RJ0) | key= O=C(Nc1ccc([C@H]2CNCCO2)cc1)c1csc(-c2ccccc2)n1
35

// lookup hTAAR1 efficacy* | system=human TAAR1 (Homo sapiens (Human), UniProt Q96RJ0) | key= O=C(Nc1ccc([C@H]2CNCCO2)cc1)c1ccc(OCC(F)(F)F)nc1
45

// lookup hTAAR1 efficacy* | system=human TAAR1 (Homo sapiens (Human), UniProt Q96RJ0) | key= O=C(Nc1ccc([C@H]2CNCCO2)cc1)c1ccn(-c2ccccc2)n1
59

// lookup hTAAR1 efficacy* | system=human TAAR1 (Homo sapiens (Human), UniProt Q96RJ0) | key= Cc1cc(C(=O)Nc2ccc([C@H]3CNCCO3)cc2)cc(C)n1
63

Next compound, hTAAR1 efficacy* to be filled in.
// lookup hTAAR1 efficacy* | system=human TAAR1 (Homo sapiens (Human), UniProt Q96RJ0) | key= O=C(Nc1ccc([C@H]2CNCCO2)cc1)c1cc(Cl)nc(Cl)c1
57

====

MEASURED TARGET: hERG potassium channel (Homo sapiens (Human), UniProt Q12809)
Sequence (Q12809 whole entry): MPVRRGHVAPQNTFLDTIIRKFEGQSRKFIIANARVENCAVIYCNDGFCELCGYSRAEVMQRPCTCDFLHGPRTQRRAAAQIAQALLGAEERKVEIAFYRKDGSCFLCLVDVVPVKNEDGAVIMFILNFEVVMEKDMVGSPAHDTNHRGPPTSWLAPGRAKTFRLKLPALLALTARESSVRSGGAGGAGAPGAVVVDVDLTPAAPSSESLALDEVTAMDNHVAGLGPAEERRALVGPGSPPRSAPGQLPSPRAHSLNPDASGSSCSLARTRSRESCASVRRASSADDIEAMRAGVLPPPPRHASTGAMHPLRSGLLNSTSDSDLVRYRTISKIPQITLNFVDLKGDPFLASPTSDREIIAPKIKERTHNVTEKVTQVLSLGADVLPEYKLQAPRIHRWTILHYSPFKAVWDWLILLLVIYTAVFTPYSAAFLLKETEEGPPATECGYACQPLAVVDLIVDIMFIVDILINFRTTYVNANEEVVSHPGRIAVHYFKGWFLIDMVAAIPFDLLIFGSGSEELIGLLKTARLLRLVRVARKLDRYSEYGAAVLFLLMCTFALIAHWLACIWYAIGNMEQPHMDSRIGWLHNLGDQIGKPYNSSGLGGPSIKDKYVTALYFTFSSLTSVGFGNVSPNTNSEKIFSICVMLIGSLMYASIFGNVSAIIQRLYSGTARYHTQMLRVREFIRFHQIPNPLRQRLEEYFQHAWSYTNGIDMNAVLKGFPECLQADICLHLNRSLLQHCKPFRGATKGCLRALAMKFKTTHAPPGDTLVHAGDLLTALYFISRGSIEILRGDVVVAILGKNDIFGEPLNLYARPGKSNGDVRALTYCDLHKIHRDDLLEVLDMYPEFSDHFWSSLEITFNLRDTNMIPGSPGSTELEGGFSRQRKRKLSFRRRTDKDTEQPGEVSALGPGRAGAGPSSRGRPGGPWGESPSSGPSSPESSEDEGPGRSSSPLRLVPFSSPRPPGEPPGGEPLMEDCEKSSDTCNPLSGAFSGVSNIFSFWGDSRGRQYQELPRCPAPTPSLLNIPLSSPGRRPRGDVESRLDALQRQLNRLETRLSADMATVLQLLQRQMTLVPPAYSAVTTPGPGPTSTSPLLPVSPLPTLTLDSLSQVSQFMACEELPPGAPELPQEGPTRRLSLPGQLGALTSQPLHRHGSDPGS
EXPERIMENTAL DETAILS: hERG whole-cell patch-clamp in stably transfected CHO cells
Type: cell-based
RECORDED CONDITIONS: estimated based on the IC50 value
Method: The whole-cell patch-clamp technique was used to investigate the effects of the test items on hERG (human-ether-a-go-go related gene) potassium channels in stably transfected CHO cells near physiological temperature (36±1° C.). The effects of compounds on hERG K^+-current parameters were evaluated at 4 concentrations (0.3-3-30-300 μM) in at least 3 CHO cells stably expressing the hERG channel. […] If current density was judged to be too low for measurement, another cell was recorded. […]
The entries below are paired with their reported IC20.
Your answer is read as µM, so omit the unit and give the number.

Solved cases (2 shown):
Which IC20 value is on record for O=C(Nc1ccc([C@H]2CNCCO2)cc1)c1coc(-c2ccccc2)n1 [Example 15] ?
2.4

Which IC20 value is on record for Cc1c(C(=O)Nc2ccc([C@H]3CNCCO3)cc2)n[nH]c1-c1ccccc1 [Example 8] ?
3.01

***
Which IC20 value is on record for O=C(Nc1ccc([C@H]2CNCCO2)cc1)c1ccn(-c2ccccc2)n1 [Example 20] ?
2.49

Which IC20 value is on record for O=C(Nc1ccc([C@H]2CNCCO2)cc1)c1csc(-c2ccccc2)n1 [Example 16] ?
3.35

Which IC20 value is on record for O=C(Nc1ccc([C@H]2CNCCO2)cc1)c1cc(Cl)nc(Cl)c1 [Example 7] ?
3.67
